- Measurement description: physchem
- Condition info: apparent pKa of L-GSH

{"columns": ["Molecule smiles", "pKa"],
 "data": [
  ["N[C@@H](CCC(=O)N[C@@H](CS)C(=O)NCC(=O)O)C(=O)O", 8.03]
]}
